Values compiled from patent US11149031B2.

molecular target: ERα in MCF7 cells (Homo sapiens (Human), UniProt P03372); assay: Test C: estrogen receptor degradation activity, ERα in cell western assay in MCF7 cells; type: cell-based; details: at 3 μM, 4 hours, relative to fulvestrant
Sequence (P03372 whole entry): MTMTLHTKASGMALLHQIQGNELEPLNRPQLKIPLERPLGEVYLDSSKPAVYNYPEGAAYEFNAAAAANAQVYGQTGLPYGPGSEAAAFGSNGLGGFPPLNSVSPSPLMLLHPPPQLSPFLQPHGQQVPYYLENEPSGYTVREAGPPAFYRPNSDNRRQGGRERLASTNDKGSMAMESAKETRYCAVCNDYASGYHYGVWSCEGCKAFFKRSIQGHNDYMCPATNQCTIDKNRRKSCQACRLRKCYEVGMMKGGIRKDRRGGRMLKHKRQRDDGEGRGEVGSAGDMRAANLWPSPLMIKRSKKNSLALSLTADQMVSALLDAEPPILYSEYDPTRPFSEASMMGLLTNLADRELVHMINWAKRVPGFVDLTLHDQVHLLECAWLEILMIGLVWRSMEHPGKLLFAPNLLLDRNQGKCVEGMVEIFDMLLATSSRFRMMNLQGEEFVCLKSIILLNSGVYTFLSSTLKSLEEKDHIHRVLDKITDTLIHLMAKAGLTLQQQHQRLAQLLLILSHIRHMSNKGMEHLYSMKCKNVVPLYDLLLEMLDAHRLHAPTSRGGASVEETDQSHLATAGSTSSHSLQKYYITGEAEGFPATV
Threshold check on % Degradation at 3 μM: at or above 90% gives condition met, strictly below gives condition not met.

>  <Substance Smiles>
Oc1ccc2c(c1)C(c1ccc(O[C@H]3CCN(CCCF)C3)cc1)=C(c1ccc(Cl)cc1F)CCS2

>  <Class Assignment>
condition not met

$$$$
>  <Substance Smiles>
Oc1ccc2c(c1)OCCC(c1ccc(F)cc1Cl)=C2c1ccc(O[C@H]2CCN(CCCF)C2)cc1

>  <Class Assignment>
condition met

$$$$
>  <Substance Smiles>
Oc1ccc2c(c1)C(c1ccc(O[C@H]3CCN(CCCF)C3)cc1)=C(c1ccc(OC(F)(F)F)cc1)CC2

>  <Class Assignment>
condition not met

$$$$

---

target: His6-ERα298-554 WT (ERα ligand-binding domain) (Homo sapiens (Human)); experiment: Test A: biochemical antagonist activity, LanthaScreen TR-FRET ERα coactivator assay, WT; settings: asterisk (*): protocol using 10 nM estradiol; read-out: Antagonism WT IC50
Sequence (P03372 298-554): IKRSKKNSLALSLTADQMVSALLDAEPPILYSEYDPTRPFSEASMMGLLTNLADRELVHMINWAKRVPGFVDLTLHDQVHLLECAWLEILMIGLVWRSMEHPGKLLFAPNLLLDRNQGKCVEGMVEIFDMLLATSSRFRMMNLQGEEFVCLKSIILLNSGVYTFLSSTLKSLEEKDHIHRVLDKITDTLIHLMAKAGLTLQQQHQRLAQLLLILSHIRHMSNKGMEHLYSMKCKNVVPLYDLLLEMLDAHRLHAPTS
pIC50: −log10 of the molar value.
We begin with a simple list: items and their reported pIC50.
Readout Name: pIC50

>  <Compound>
Oc1ccc2c(c1)C(c1ccc(O[C@H]3CCN(CCCF)C3)cc1)=C(c1ccc(OC(F)(F)F)cc1F)CC2 [Example 10]

>  <Test System>
His6-ERα298-554 WT (ERα ligand-binding domain) (Homo sapiens (Human))

>  <Reported Measurement>
5.90

$$$$
>  <Compound>
CCOc1ccc(C2=C(c3ccc(N[C@H]4CCN(CCCF)C4)cc3)c3ccc(O)cc3CCC2)c(F)n1 [Example 86]

>  <Test System>
His6-ERα298-554 WT (ERα ligand-binding domain) (Homo sapiens (Human))

>  <Reported Measurement>
9.30

$$$$
>  <Compound>
C[C@@H]1Cc2cc(C3=C(c4ccc(O[C@H]5CCN(CCCF)C5)cc4)c4ccc(O)cc4SCC3)ccc2O1 [Example 202]

>  <Test System>
His6-ERα298-554 WT (ERα ligand-binding domain) (Homo sapiens (Human))

>  <Reported Measurement>
9.00

$$$$
>  <Compound>
Oc1ccc2c(c1)C(c1ccc(O[C@H]3CCN(CCCF)C3)cc1)=C(c1ccc(OC(F)(F)F)cc1)CC2 [Example 8]

>  <Test System>
His6-ERα298-554 WT (ERα ligand-binding domain) (Homo sapiens (Human))

>  <Reported Measurement>
5.86

$$$$

---

We begin with a simple list: items and their reported log10(IC50).
tested on: MCF7 cells (breast tumor cells) WT; assay: Test B: cell proliferation/viability assay (CellTiter-Glo) on MCF7 WT; type: cell-based; conditions: Homo sapiens, MCF7, 168 h, 7 days of compound exposure
Readout Name: log10(IC50) (log10 of the value in nM)

>  <Molecule>
CC1(C)Cc2cc(C3=C(c4ccc(O[C@H]5CCN(CCCF)C5)nc4)c4ccc(O)cc4CCC3)ccc2N1 [Example 242]

>  <Readout Name>
log10(IC50)

>  <Reported Measurement>
-0.15

$$$$
>  <Molecule>
CC(C)(O)c1ccc(C2=C(c3ccc(O[C@H]4CCN(CCCF)C4)cc3)c3ccc(O)cc3SC2)c(F)c1 [Example 33]

>  <Readout Name>
log10(IC50)

>  <Reported Measurement>
0.60

$$$$
>  <Molecule>
CC(C)(C)c1ccc(C2=C(c3ccc(O[C@H]4CCN(CCCF)C4)cc3)c3ccc(O)cc3SC2)cc1 [Example 52]

>  <Readout Name>
log10(IC50)

>  <Reported Measurement>
0.30

$$$$
>  <Molecule>
CCOc1ccc(C2=C(c3ccc(O[C@H]4CCN(CCCF)C4)cc3)c3ccc(O)cc3SCC2)c(C)c1 [Example 186]

>  <Readout Name>
log10(IC50)

>  <Reported Measurement>
-0.52

$$$$
>  <Molecule>
Oc1ccc2c(c1)OCCC(c1ccc(OC3CC3)cc1)=C2c1ccc(O[C@H]2CCN(CCCF)C2)cc1 [Example 149]

>  <Readout Name>
log10(IC50)

>  <Reported Measurement>
-0.30

$$$$
>  <Molecule>
CCN(CC)c1ccc(C2=C(c3ccc(O[C@H]4CCN(CCCF)C4)cc3)c3ccc(O)cc3SC2)c(F)c1 [Example 74]

>  <Readout Name>
log10(IC50)

>  <Reported Measurement>
1.08

$$$$
>  <Molecule>
CCOc1ccc(C2=C(c3cnc(O[C@H]4CCN(CCCF)C4)nc3)c3ccc(O)cc3CCC2)c(F)n1 [Example 251]

>  <Readout Name>
log10(IC50)

>  <Reported Measurement>
-0.40

$$$$
>  <Molecule>
CC1(C)Cc2cc(C3=C(c4ccc(O[C@H]5CCN(CCCF)C5)cc4)c4ccc(O)cc4SCC3)ccc2O1 [Example 201]

>  <Readout Name>
log10(IC50)

>  <Reported Measurement>
-0.70

$$$$
>  <Molecule>
CC/C(=C(/c1ccc(O[C@H]2CCN(CCCF)C2)cc1)c1ccc2[nH]ncc2c1)c1ccc(F)cc1Cl [Example 255]

>  <Readout Name>
log10(IC50)

>  <Reported Measurement>
-1.00

$$$$
>  <Molecule>
CCOc1ccc(C2=C(c3ccc(O[C@H]4CCN(CCCF)C4)nc3)c3ccc(O)cc3CCC2)c(F)n1 [Example 240]

>  <Readout Name>
log10(IC50)

>  <Reported Measurement>
-0.52

$$$$
>  <Molecule>
Oc1ccc2c(c1)SCCC(c1ccc(SC(F)(F)F)cc1)=C2c1ccc(O[C@H]2CCN(CCCF)C2)cc1 [Example 222]

>  <Readout Name>
log10(IC50)

>  <Reported Measurement>
0.60

$$$$
>  <Molecule>
Oc1ccc2c(c1)OCCC(c1ccc(Cl)cc1F)=C2c1ccc(O[C@H]2CCN(CCCF)C2)cc1 [Example 98]

>  <Readout Name>
log10(IC50)

>  <Reported Measurement>
-0.30

$$$$
>  <Molecule>
CCOc1ccc(C2=C(c3ccc(O[C@H]4CCN(CCCF)C4)cc3)c3ccc(O)cc3OCC2)c(C)c1 [Example 119]

>  <Readout Name>
log10(IC50)

>  <Reported Measurement>
-0.22

$$$$
>  <Molecule>
Oc1ccc2c(c1)SCC(c1ccc(OC(F)(F)F)cc1)=C2c1ccc(O[C@H]2CCN(CCCF)C2)cc1 [Example 54]

>  <Readout Name>
log10(IC50)

>  <Reported Measurement>
0.48

$$$$
>  <Molecule>
Cc1ccc(C2=C(c3ccc(O[C@H]4CCN(CCCF)C4)cc3)c3ccc(C(=O)O)cc3SCC2)c(F)c1 [Example 210]

>  <Readout Name>
log10(IC50)

>  <Reported Measurement>
-0.10

$$$$
>  <Molecule>
Oc1ccc2c(c1)CCCC(c1ccc(SC(F)(F)F)cc1)=C2c1ccc(N[C@H]2CCN(CCCF)C2)cc1 [Example 90]

>  <Readout Name>
log10(IC50)

>  <Reported Measurement>
-0.52

$$$$
>  <Molecule>
Oc1ccc(C2=C(c3ccc(O[C@H]4CCN(CCCF)C4)cc3)c3ccc(O)cc3CC2)cc1 [Example 15]

>  <Readout Name>
log10(IC50)

>  <Reported Measurement>
-0.70

$$$$
>  <Molecule>
Oc1ccc2c(c1)SCC(c1ccc3c(c1)OCCO3)=C2c1ccc(O[C@H]2CCN(CCCF)C2)cc1 [Example 28]

>  <Readout Name>
log10(IC50)

>  <Reported Measurement>
-0.15

$$$$
>  <Molecule>
[O-][S+]1CCC(c2ccc(OC(F)(F)F)cc2)=C(c2ccc(O[C@H]3CCN(CCCF)C3)cc2)c2ccc(O)cc21 (some centres unmarked) [Example 225]

>  <Readout Name>
log10(IC50)

>  <Reported Measurement>
1.26

$$$$
>  <Molecule>
COc1ccc(C2=C(c3ccc(O[C@H]4CCN(CCCF)C4)cc3)c3ccc(O)cc3SC2)c(F)c1 [Example 24]

>  <Readout Name>
log10(IC50)

>  <Reported Measurement>
-0.52

$$$$
>  <Molecule>
O=C(O)c1ccc2c(c1)CCCC(c1ccc(Cl)cc1Cl)=C2c1ccc(O[C@H]2CCN(CCCF)C2)nc1 [Example 247]

>  <Readout Name>
log10(IC50)

>  <Reported Measurement>
-0.70

$$$$
>  <Molecule>
Cc1ccc(C2=C(c3ccc(O[C@H]4CCN(CCCF)C4)cc3)c3ccc(O)cc3SC2)c(F)c1F [Example 64]

>  <Readout Name>
log10(IC50)

>  <Reported Measurement>
0.00

$$$$
>  <Molecule>
CCOc1ccc(C2=C(c3ccc(O[C@H]4CCN(CCCF)C4)cc3)c3ccc(O)cc3SCC2)c(F)c1Cl [Example 221]

>  <Readout Name>
log10(IC50)

>  <Reported Measurement>
-0.30

$$$$
>  <Molecule>
Oc1ccc2c(c1Cl)OCCC(c1cccc3[nH]ccc13)=C2c1ccc(O[C@H]2CCN(CCCF)C2)cc1 [Example 124]

>  <Readout Name>
log10(IC50)

>  <Reported Measurement>
0.90

$$$$
>  <Molecule>
CCOc1ccc(C2=C(c3ccc(N[C@H]4CCN(CCCF)C4)cc3)c3ccc(O)cc3CCC2)c(F)n1 [Example 86]

>  <Readout Name>
log10(IC50)

>  <Reported Measurement>
-0.70

$$$$
>  <Molecule>
Cc1ccc(C2=C(c3ccc(O[C@H]4CCN(CCCF)C4)cc3)c3ccc(O)cc3SC2)c(Cl)n1 [Example 56]

>  <Readout Name>
log10(IC50)

>  <Reported Measurement>
-0.22

$$$$
>  <Molecule>
CCOc1ccc(C2=C(c3ccc(O[C@H]4CCN(CCCF)C4)cc3)c3ccc(O)cc3SC2)c(F)n1 [Example 27]

>  <Readout Name>
log10(IC50)

>  <Reported Measurement>
-0.40

$$$$
>  <Molecule>
CCOc1cc(Cl)ccc1C1=C(c2ccc(O[C@H]3CCN(CCCF)C3)cc2)c2ccc(O)cc2SC1 [Example 43]

>  <Readout Name>
log10(IC50)

>  <Reported Measurement>
-0.40

$$$$
>  <Molecule>
O=C1Cc2cc(C3=C(c4ccc(O[C@H]5CCN(CCCF)C5)cc4)c4ccc(O)cc4SC3)ccc2N1 [Example 51]

>  <Readout Name>
log10(IC50)

>  <Reported Measurement>
1.96

$$$$
